Assay: Inhibition of C-terminal His6-tagged and C-terminal 21 amino acids truncated Hepatitis C virus genotype 7a QC69 NS5B RNA-dependent RNA polymerase activity using polyU or polyC RNA as template by microbeta plate reader analysis
Set-up: species or system Hepacivirus hominis
property: pIC50
Give bare numbers, as −log10 of the molar value.

Entry `C[C@@]1(O)[C@H](O)[C@@H](CO)O[C@H]1c1ccc2c(N)ncnn12` ; pIC50 = 6.09

* * *

Assay: Cytotoxicity in rat kidney fibroblasts
Design: species or system Fibroblast
property: CC50

The value of CC50 measured for the compound `C[C@@]1(O)[C@H](O)[C@@H](CO)O[C@H]1c1ccc2c(N)ncnn12` turned out to be > 250 µM
